Quick reference for Percent Effect among some molecules
- TARGET SYSTEM: Chromo domain-containing protein 1 (Saccharomyces cerevisiae (strain ATCC 204508 / S288c) (Baker's yeast)) (UniProt P32657)
- Sequence (P32657 whole entry, the tested form may be a part): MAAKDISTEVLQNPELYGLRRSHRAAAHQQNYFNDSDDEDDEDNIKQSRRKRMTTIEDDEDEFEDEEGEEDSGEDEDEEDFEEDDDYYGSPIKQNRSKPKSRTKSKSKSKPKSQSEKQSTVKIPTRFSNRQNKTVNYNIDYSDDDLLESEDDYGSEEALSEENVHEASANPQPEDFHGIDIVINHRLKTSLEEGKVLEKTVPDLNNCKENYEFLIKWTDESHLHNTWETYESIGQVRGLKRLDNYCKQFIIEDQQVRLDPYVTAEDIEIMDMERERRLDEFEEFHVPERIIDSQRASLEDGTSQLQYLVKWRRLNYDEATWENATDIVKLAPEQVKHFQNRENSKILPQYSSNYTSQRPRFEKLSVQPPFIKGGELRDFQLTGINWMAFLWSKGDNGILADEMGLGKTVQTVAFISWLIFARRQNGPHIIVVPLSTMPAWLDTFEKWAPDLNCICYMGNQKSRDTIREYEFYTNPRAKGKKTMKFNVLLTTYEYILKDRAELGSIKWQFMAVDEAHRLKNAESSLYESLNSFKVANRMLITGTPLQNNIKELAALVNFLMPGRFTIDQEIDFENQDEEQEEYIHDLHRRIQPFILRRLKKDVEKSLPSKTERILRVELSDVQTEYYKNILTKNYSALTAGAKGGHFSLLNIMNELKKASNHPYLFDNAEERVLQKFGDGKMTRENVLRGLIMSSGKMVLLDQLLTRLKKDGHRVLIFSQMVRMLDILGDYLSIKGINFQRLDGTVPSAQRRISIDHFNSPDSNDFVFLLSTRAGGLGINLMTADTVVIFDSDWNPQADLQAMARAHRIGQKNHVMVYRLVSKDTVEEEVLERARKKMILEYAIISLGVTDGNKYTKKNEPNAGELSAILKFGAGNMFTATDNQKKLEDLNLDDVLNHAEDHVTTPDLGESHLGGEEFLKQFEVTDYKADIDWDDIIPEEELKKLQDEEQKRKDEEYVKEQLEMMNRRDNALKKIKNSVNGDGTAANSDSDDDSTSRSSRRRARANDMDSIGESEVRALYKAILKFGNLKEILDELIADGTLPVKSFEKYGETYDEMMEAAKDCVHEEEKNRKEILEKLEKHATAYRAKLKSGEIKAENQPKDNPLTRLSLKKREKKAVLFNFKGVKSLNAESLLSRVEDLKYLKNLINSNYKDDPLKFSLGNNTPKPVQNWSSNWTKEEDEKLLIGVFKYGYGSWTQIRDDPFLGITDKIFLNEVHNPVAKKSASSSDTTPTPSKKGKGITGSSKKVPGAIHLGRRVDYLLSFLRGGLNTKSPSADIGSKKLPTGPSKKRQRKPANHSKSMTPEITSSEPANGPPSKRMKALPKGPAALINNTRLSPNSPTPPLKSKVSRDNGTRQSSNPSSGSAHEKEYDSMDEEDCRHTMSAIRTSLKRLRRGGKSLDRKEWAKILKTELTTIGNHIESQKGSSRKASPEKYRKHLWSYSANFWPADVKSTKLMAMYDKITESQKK
- METHOD: ScCHD-1 Enzyme Inhibition Assay; also: in the data most compounds retested in dose-response had high values
- Type: functional
- Design: scale not given: direction of the effect not stated beside the values
- CONDITION INFO: 30 µM
Return type: number; implicit unit %.

Incoming: Any idea what its Percent Effect is? The molecule is `CN1CCN(C[C@@H]2OC[C@H]3CN(Cc4ccsc4)CC[C@H]32)CC1`
Outgoing: -4.8

Incoming: CCC(=O)Nc1ccc(C(C)NC(=O)COCCOC)cc1 (stereo unspecified) , same question.
Outgoing: -5.61

====

Overview of reported Percent Effect across a group of molecules:
- TARGET SYSTEM: Tyrosyl-tRNA synthetase, putative (Trypanosoma cruzi (strain CL Brener))
- METHOD: Trypanosoma cruzi tyrosyl tRNA synthetase (TcYRS) SOP
- Assay type: functional
- Set-up: scale not given: direction of the effect not stated beside the values
- CONDITION INFO: 30 µM
Numbers only; they are read as %.

Example cases with answers are listed next.
[[record]]
molecule = "CC(=O)Nc1cccc(OCCNC(=O)N(C)Cc2ccco2)c1"
measurement_units = "%"
numeric_readout = 0

[[record]]
molecule = "N#Cc1ccc(CN2CCN(C(=O)C3CCC3)[C@@H]3CS(=O)(=O)C[C@@H]32)cc1"
measurement_units = "%"
numeric_readout = 8.64

[[record]]
molecule = "COCC1CN(Cc2ccc(C)o2)Cc2ncn(CC3CC3)c21 (stereo not drawn)"
measurement_units = "%"
numeric_readout = 1.24

[[record]]
molecule = "Cc1ccc(C#N)c(N2CCC(c3nccn3CCN(C)C)CC2)n1"
measurement_units = "%"
numeric_readout = 11.1


# next molecule below
Incoming: Would you mind telling me what Percent Effect value was observed for `O=C(NC1CCCC1)[C@@H]1CN(Cc2nccs2)C[C@H]2OCC[C@H]21` ?
Outgoing: -3.85

====

- TARGET SYSTEM: Chromo domain-containing protein 1 (Saccharomyces cerevisiae (strain ATCC 204508 / S288c) (Baker's yeast)) (UniProt P32657)
- METHOD: ScCHD-1 Enzyme Inhibition Assay; also: in the data most compounds retested in dose-response had high values
- Type: functional
- Parameters: scale not given: direction of the effect not stated beside the values
- CONDITION INFO: 30 µM
Percent Effect values, listed per item
Quick note: number first, unit second.

Example cases with answers are listed next.
[[record]]
compound = "COc1ncccc1CN1CCn2c(Cn3cncn3)cnc2C1"
result = "-3.83%"

[[record]]
compound = "Cn1cc(CN2CCC(F)(F)C3(CCN(c4cnccn4)C3)C2)cn1 (configuration not stated)"
result = "-4.16%"

[[record]]
compound = "O=C(NC1CC1)[C@@H]1CCO[C@@H]2CCN(C3CCOCC3)C[C@@H]21"
result = "-7.95%"

[[record]]
compound = "C[S+]([O-])CCCNC(=O)c1cc(Br)c2c(c1)OCCO2 (configuration not stated)"
result = "-7.44%"


Incoming: Consider the compound shown here: `O=C(NCc1ccccc1F)N1CCC(C2OCCO2)CC1` What is its recorded Percent Effect?
Outgoing: -3.04%

Incoming: CCn1ncc2c1CCCC2NCc1ccc(OC)c(C)c1 (configuration not stated) , same question.
Outgoing: -6.17%

Incoming: Likewise for CN1CCCC(c2cccc(Cc3ccccc3Cl)n2)C1 (configuration not stated) ?
Outgoing: -7.93%

Incoming: Param item: `CNS(=O)(=O)c1cccc(CNC(=O)c2c(C)nn(C)c2C)c1`
Outgoing: -12.7%

Incoming: What do you have for `COCCNC(=O)NCCc1ccn(-c2ccccc2)n1` ?
Outgoing: -16.7%

Incoming: Same again, this time with `Cc1cccc(C2(C(=O)NCCCn3cccn3)CC2)c1`
Outgoing: -6.34%

Incoming: Also need COc1ccc(C2=CCN(C(=O)CN(C)CC(C)C#N)CC2)cc1 (configuration not stated) , thanks.
Outgoing: -8.15%

Incoming: Note, next up: CCc1nc(C2CCCN(C(=O)c3ccc4[nH]nnc4c3)C2)no1 (configuration not stated)
Outgoing: -11.2%
